- Target: T1, human B7-H7 on the cell surface (human, UniProt Q9UM44 23-414)
- T1 construct: whole, on cells; also called hB7-H7; hu B7-H7
- T1 sequence (looked up): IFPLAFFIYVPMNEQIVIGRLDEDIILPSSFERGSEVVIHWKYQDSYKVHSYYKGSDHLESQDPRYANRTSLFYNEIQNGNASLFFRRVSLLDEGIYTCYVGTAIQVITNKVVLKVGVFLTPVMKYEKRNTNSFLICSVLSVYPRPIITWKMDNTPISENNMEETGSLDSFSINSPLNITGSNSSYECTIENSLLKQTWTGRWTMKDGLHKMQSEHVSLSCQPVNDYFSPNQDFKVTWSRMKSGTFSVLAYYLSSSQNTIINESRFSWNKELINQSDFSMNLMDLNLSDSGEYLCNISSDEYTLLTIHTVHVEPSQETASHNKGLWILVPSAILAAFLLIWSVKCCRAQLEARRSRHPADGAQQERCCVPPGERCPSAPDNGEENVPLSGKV
- Test: flow cytometry, HCC827 cells
Measured metric: pEC50
Please report pEC50 as the negative decimal logarithm of the molar concentration, giving only the number.

Past entries and their recorded results:
>>> measurement("PR003265 (antibody, human IgG1, kappa, V domains shown, Human IgG1; also called 78G8B3) VH: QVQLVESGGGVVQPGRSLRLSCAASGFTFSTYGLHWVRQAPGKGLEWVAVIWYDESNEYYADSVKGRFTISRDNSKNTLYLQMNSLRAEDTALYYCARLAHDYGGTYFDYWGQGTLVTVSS VL: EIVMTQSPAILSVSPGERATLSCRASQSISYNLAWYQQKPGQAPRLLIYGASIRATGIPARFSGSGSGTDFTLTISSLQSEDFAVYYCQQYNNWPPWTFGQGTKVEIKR")
10.04
>>> measurement("PR003260 (antibody, human IgG1, kappa, V domains shown, Human IgG1; also called 70F3B1) VH: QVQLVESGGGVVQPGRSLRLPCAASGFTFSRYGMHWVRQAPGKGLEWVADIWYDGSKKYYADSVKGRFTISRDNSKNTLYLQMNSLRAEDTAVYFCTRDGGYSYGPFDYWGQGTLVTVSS VL: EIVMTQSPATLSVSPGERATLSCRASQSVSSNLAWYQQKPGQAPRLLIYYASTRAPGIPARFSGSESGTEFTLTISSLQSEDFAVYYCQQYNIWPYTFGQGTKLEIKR")
10.36
>>> measurement("PR003263 (antibody, human IgG1, kappa, V domains shown, Human IgG1; also called 77E6C4) VH: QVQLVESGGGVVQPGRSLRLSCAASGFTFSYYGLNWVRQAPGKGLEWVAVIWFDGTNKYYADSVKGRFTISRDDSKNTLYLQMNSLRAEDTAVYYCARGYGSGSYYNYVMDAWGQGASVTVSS VL: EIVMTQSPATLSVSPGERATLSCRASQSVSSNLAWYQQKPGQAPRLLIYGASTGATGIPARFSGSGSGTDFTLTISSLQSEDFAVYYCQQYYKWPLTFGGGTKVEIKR")
10.10

Proceed to the following item.
The recorded pEC50 for entry PR003262 (antibody, human IgG1, kappa, V domains shown, Human IgG1; also called 77D5A4) VH: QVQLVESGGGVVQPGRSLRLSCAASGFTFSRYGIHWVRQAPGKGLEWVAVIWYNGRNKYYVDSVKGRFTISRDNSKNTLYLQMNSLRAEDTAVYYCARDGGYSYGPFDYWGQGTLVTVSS VL: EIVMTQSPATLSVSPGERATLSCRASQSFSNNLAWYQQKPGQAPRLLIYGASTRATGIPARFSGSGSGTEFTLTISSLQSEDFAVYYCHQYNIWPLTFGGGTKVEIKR equals 10.39

// provenance: patent US20250136696A1
